assayTarget: UniProt:P08170
Sequence (P08170 whole entry): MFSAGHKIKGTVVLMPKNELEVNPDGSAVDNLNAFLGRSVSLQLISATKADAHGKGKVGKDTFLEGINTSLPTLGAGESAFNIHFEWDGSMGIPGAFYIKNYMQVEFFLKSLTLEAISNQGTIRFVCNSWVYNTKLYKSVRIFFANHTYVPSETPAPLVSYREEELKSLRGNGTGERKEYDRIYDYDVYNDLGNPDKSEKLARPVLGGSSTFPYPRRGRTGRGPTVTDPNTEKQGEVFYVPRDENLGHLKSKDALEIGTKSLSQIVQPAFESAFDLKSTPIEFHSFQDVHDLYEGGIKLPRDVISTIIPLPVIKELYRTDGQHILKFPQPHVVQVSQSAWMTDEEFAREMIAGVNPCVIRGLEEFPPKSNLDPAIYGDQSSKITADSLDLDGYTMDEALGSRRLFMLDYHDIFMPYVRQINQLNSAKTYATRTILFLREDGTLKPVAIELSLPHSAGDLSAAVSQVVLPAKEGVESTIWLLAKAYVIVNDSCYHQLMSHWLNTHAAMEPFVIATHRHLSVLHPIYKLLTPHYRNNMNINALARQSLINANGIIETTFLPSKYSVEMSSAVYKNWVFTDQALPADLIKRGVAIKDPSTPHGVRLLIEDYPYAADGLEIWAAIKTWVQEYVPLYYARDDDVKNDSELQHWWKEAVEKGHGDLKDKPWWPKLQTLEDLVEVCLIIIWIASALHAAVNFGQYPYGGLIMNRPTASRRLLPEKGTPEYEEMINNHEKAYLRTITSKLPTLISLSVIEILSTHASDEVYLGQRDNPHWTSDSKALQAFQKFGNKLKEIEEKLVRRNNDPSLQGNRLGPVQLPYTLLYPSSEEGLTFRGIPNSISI
assayName: soybean 15-LOX inhibition assay
Assay type: biochemical
property: pIC50
# pIC50 = -log10(concentration in molar units)

# compound, property, quantitativeReadout
records = [
    ("CCCNC(=O)C(C)Sc1nnc(-c2ccc(Cl)cc2)n1Cc1ccco1 (centres unmarked)", "pIC50", 4.58),
]

Let us move to another entry and its pIC50.
Given the entry O=c1cc(-c2ccccc2)oc2cc(O)c(O)c(O)c12 [baicalein, reference compound] , report its measured pIC50.
5.65
